measurement-target: IN-GCN2 interaction (6xHis-IN / GST-GCN2) (UniProt P04585+Q9P2K8)
Sequence (Q9P2K8 192-1024, other chains not shown): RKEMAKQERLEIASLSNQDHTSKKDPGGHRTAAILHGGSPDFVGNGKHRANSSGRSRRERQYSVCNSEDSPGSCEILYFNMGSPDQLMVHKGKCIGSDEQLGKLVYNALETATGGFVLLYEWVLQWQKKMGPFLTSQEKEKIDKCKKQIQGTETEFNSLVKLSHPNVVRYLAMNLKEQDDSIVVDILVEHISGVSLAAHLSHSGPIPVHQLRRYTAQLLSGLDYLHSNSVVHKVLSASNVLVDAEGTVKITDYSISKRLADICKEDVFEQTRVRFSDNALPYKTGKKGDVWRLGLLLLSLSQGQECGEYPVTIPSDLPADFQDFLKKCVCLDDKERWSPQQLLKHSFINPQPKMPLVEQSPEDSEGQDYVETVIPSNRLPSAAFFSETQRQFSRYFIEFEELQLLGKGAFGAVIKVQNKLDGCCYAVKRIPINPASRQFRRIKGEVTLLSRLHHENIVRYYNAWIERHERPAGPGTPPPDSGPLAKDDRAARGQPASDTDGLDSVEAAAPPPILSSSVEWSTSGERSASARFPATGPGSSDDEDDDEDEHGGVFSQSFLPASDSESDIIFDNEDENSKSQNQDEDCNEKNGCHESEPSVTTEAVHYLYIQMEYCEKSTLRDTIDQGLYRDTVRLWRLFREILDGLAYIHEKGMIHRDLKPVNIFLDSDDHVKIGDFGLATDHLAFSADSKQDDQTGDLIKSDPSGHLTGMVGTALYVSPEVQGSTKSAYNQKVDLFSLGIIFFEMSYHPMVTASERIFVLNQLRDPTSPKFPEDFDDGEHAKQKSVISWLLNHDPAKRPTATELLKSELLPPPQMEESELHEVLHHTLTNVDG
assay-procedure: biochemical
Assay type: binding, HIV-1 IN; human GCN2
condition-parameters: screen, single dose 100 µM, single replicate; residual AlphaLISA signal normalized to DMSO control
Catalogue of molecules with associated IN-GCN2 interaction (%)
Give the quantity in %, number only.

Qu. IN-GCN2 interaction (%) lookup needed for `C[C@H](N)C(=O)N[C@@H]1[C@H]2C(=C(O)C[C@@H](O)[C@@H]2O)C(=O)O[C@]1(C)C(Cl)Cl` , thanks.
Ans. 94.06

Qu. Please give the result for `O=C1C[C@@H]2OCC=C3CN4CC[C@]56c7ccccc7N1[C@H]5[C@H]2[C@H]3C[C@]46O` too.
Ans. 109.08

Qu. Please give the result for `C=C1C(=O)O[C@@H]2[C@H]1CC[C@H](C)[C@@H]1C=CC(=O)[C@@]21C` too.
Ans. 40.36

Qu. Please give the result for `CCCCCCCCCC[C@H](C(=O)O)[C@]1(C(=O)O)CCC(=O)O1` too.
Ans. 146.01

---

measurement-target: IN-GCN2 interaction (6xHis-IN / GST-GCN2) (UniProt P04585+Q9P2K8)
assay-procedure: biochemical
Format: binding, HIV-1 IN; human GCN2
condition-parameters: screen, single dose 100 µM, single replicate; residual AlphaLISA signal normalized to DMSO control
Square brackets hold non-standard residues; d marks the D form. Peptide text beside a SMILES is read from it. dHica = CC(C)C[C@@H](O)C(=O)O; NMeV = CN[C@H](C(=O)O)C(C)C; NMeA = CN[C@@H](C)C(=O)O; βAla = NCCC(=O)O
Catalogue of compounds with associated IN-GCN2 interaction (%)
Give the quantity in %, number only.

compound	IN-GCN2 interaction (%)
CO[C@H]1C[C@@H]2CC[C@@H](C)[C@@](O)(O2)C(=O)C(=O)N2CCCC[C@H]2C(=O)O[C@H]([C@H](C)C[C@@H]2CC[C@@H](O)[C@H](OC)C2)CC(=O)[C@H](C)/C=C(\C)[C@@H](O)[C@@H](OC)C(=O)[C@H](C)C[C@H](C)/C=C/C=C/C=C/1C [NSC226080]	54.18

Qu. IN-GCN2 interaction (%) lookup needed for CCC1CN(C)C2Cc3c([nH]c4ccccc34)C(=O)CC1C2C(=O)OC (centres unmarked) [NSC108088] , thanks.
Ans. 78.52

Qu. Please give the result for COC1=CC(=O)C(C2CC(=O)c3c(O)cc(O)cc3O2)=CC1=O (centres unmarked) [NSC169517] too.
Ans. 98.58

Qu. Please give the result for COC1=C2C[C@@H](C)C[C@H](OC)[C@H](O)[C@@H](C)/C=C(\C)[C@H](OC(N)=O)[C@@H](OC)/C=C\C=C(/C)C(=O)NC(=CC1=O)C2=O [NSC122750] too.
Ans. 116.21

Qu. Please give the result for COc1ccc2c(c1OC)-c1cccc3c1[C@@H](C2)N(C)CC3 [NSC785153] too.
Ans. 61.13

Qu. Please give the result for CC[C@H](C)[C@@H]1NC(=O)[C@@H]2CCCN2C(=O)[C@@H](CC(C)C)OC(=O)CCNC(=O)[C@H](C)N(C)C(=O)[C@H](C(C)C)N(C)C1=O [NSC236580] (cyclo([dHica]PI[NMeV][NMeA][βAla])) too.
Ans. 98.06

Qu. Please give the result for CCOc1ccc2c(c1)-c1c(O)c(OC)cc3c1[C@H](C2)N(C)CC3 [NSC785169] too.
Ans. 40.02

Qu. Please give the result for COc1c2c(cc(O)c1C(C)=O)OC(C)(C)C=C2 [NSC36294] too.
Ans. 109.95

Qu. Please give the result for COc1cc2c(cc1OC)C(=O)Cc1ccc3c(c1CN(C)CC2)OCO3 [NSC32984] too.
Ans. 91.01

Qu. Please give the result for COc1ccc2c(c1OC)C(=O)O[C@@H]2[C@H]1c2c(cc3c(c2OC)OCO3)CCN1C [NSC5366] too.
Ans. 132.74

Qu. Please give the result for CC(=O)OC1CCC2(C)C(=CCC3C2CCC2(C)C3CC3OC4(CCC(C)CN4)C(C)C32)C1 (centres unmarked) [NSC96021] too.
Ans. 132.69

Qu. Please give the result for COc1ccc(CC2C(=O)NC(C)C(=O)N(C)C3C(=O)N(C)C(Cc4ccc(O)c(c4)Oc4ccc(cc4)C3O)C(=O)NC(C)C(=O)NC(C)C(=O)N2C)cc1 (centres unmarked) [NSC259968] too.
Ans. 109.81

Qu. Please give the result for COC1[C@H](O)[C@@H](O)C(O)[C@H](O)[C@H]1O (some centres unmarked) [NSC26254] too.
Ans. 90.47
